Property: PPB; scope: individual molecules
- Species on record: Homo sapiens
- procedure-text: Binding affinity to human plasma protein
- Type: cell-free
Give the value in % but do not write % after it.

See these solved cases before continuing.
line-notation | measure-unit | PPB
O=C(C[C@@H]1C(=O)Nc2ccccc2N1S(=O)(=O)c1ccc(Cl)c(Cl)c1)NCCc1ccc(-n2cnnc2)cc1 | % | 82.5
O=C(C[C@@H]1C(=O)Nc2ccccc2N1S(=O)(=O)c1ccc2ccccc2c1)NCCc1ccc(-c2ncc[nH]2)cc1 | % | 98.5
O=C(C[C@@H]1C(=O)Nc2ccccc2N1S(=O)(=O)c1ccc(Cl)c(Cl)c1)NCCc1ccc(C2=NCCN2)cc1 | % | 36
O=C(C[C@@H]1C(=O)Nc2ccc(Cl)cc2N1S(=O)(=O)c1ccc2ccccc2c1)NCCc1ccc(C2=NCCN2)cc1 | % | 93.6

Please look at the following molecule next.
Need PPB of `CN1CCN=C1c1ccc(CCNC(=O)C[C@@H]2C(=O)Nc3ccc(Cl)cc3N2S(=O)(=O)c2ccc3ccccc3c2)cc1` , thanks.
91.7

The measurements presented in this section are drawn from ChEMBL document CHEMBL1138721.
